Cited source for all entries: patent EP0286926A2

System: L1210 Leukämiezellen
experimentalProtocol: Colony formation of L1210 leukemia cells in soft agar
Format: cell-based, Maus
measurementConditions: Mus musculus, L1210; 1 h incubation with substance at 37°C, cells washed twice, then plated in 0,3 % agar for 7 days; colonies > 60 µm counted; read-out: 1h-Inkubation IC50
Reported IC50 values for the following molecules.
parameter: IC50

>>> testresult("CC[C@@]1(O)C[C@H](O[C@H]2C[C@H](NC(=O)C(F)(F)F)[C@H](OC(=O)c3ccc([N+](=O)[O-])cc3)[C@H](C)O2)c2c(O)c3c(c(O)c2[C@H]1OC(=O)C(F)(F)F)C(=O)c1cccc(O)c1C3=O")
"> 1 µg/mL"
>>> testresult("CC[C@@]1(O)C[C@H](O)c2c(O)c3c(c(O)c2[C@H]1O[C@H]1C[C@H](N)[C@H](O)[C@H](C)O1)C(=O)c1cccc(O)c1C3=O")
"> 1 µg/mL"

* * *

Reported IC50 values follow for various compounds
System: L1210 Leukämiezellen
experimentalProtocol: Colony formation of L1210 leukemia cells in soft agar
Assay type: cell-based, Maus
measurementConditions: Mus musculus, L1210, read-out: 1h-Inkubation IC50
Text: Die zytostatische Wirksamkeit der erfindungsgemäßen Verbindungen wurde anhand von L1210 Leukämiezellen der Maus getestet. Hierzu wurde die Koloniebildung von L1210 Leukämiezellen in Agarplatten herangezogen. Diese Methode dient zum Nachweis des Einflusses der Testsubstanzen auf das Wachstumsverhalten der Zellen nach Inkubation von 1 Stunde oder über mehrere Generationen. […]
parameter: IC50 (µg/mL)

>>> testresult("CC[C@@]1(O)C[C@H](O[C@H]2C[C@H](N(C)C)[C@@H](O)[C@H](C)O2)c2c(O)c3c(c(O)c2[C@H]1O[C@H]1C[C@H](N(C)C)[C@@H](O)[C@H](C)O1)C(=O)c1cccc(O)c1C3=O")
0.09
>>> testresult("CC[C@@]1(O)C[C@H](O[C@H]2C[C@H](NCC#N)[C@H](O)[C@H](C)O2)c2c(O)c3c(c(O)c2[C@H]1O)C(=O)c1cccc(O)c1C3=O")
0.09
>>> testresult("COc1cccc2c1C(=O)c1c(O)c3c(c(O)c1C2=O)C[C@@](O)(C(=O)CO)C[C@@H]3O[C@H]1C[C@H](N)[C@H](O)[C@H](C)O1 [Adriamycin, reference compound]")
0.04
>>> testresult("CC[C@@]1(O)C[C@H](O[C@H]2C[C@H](N(C)C)[C@@H](O)[C@H](C)O2)c2c(O)c3c(c(O)c2[C@H]1O)C(=O)c1cccc(O)c1C3=O")
0.02

* * *

Tested on: L1210 Leukämiezellen
experimentalProtocol: Colony formation of L1210 leukemia cells in soft agar
Type: cell-based, Maus
measurementConditions: Mus musculus, L1210; 1 h incubation with substance at 37°C, cells washed twice, then plated in 0,3 % agar for 7 days; colonies > 60 µm counted; read-out: 1h-Inkubation IC50
parameter: IC50 (µg/mL)

>>> testresult("CC[C@@]1(O)C[C@H](O[C@H]2C[C@H](N)C[C@H](C)O2)c2c(O)c3c(c(O)c2[C@H]1O)C(=O)c1cccc(O)c1C3=O [Beispiel 53]")
0.05
>>> testresult("CC[C@@]1(O)C[C@H](O)c2c(O)c3c(c(O)c2[C@H]1O[C@H]1C[C@H](N)[C@@H](O)[C@H](C)O1)C(=O)c1cccc(O)c1C3=O [Beispiel 10, 10-0-α-L-Acosaminyl-β-rhodomycinon]")
6.5
>>> testresult("CC[C@@]1(O)C[C@H](O[C@H]2C[C@H](N)[C@@H](O)[C@H](C)O2)c2c(O)c3c(c(O)c2[C@H]1O)C(=O)c1cccc(O)c1C3=O [Beispiel 15, 7-0-α-L-Acosaminyl-β-rhodomycinon]")
0.02
>>> testresult("CC[C@@]1(O)C[C@H](O[C@H]2C[C@H](NC(=O)C(F)(F)F)C[C@H](C)O2)c2c(O)c3c(c(O)c2[C@H]1O)C(=O)c1cccc(O)c1C3=O [Beispiel 52]")
0.66
>>> testresult("CC[C@@]1(O)C[C@H](O[C@H]2C[C@H](N)[C@@H](OCc3ccccc3)[C@H](C)O2)c2c(O)c3c(c(O)c2[C@H]1O)C(=O)c1cccc(O)c1C3=O [Beispiel 48]")
0.095
>>> testresult("CC[C@@]1(O)C[C@H](O[C@H]2C[C@H](N)[C@@H](OCc3ccccc3)[C@H](C)O2)c2c(O)c3c(c(O)c2[C@H]1O[C@H]1C[C@H](N)[C@@H](OCc2ccccc2)[C@H](C)O1)C(=O)c1cccc(O)c1C3=O [Beispiel 51]")
0.68
>>> testresult("CC[C@@]1(O)C[C@H](O[C@H]2C[C@@H](N)[C@@H](O)[C@H](C)O2)c2c(O)c3c(c(O)c2[C@H]1O)C(=O)c1cccc(O)c1C3=O [Beispiel 46, 7-O-α-L-Ristosaminyl-β-rhodomycinon]")
0.11
>>> testresult("CC[C@@]1(O)C[C@H](O[C@H]2C[C@H](NC(=O)C(F)(F)F)[C@@H](O)[C@H](C)O2)c2c(O)c3c(c(O)c2[C@H]1O)C(=O)c1cccc(O)c1C3=O [Beispiel 45]")
0.29
